# Assayed Target: T1, pro-domain of matrix metalloproteinase-7 (MMP-7)
# T1 sequence (P09237 whole entry, species assumed, looked up): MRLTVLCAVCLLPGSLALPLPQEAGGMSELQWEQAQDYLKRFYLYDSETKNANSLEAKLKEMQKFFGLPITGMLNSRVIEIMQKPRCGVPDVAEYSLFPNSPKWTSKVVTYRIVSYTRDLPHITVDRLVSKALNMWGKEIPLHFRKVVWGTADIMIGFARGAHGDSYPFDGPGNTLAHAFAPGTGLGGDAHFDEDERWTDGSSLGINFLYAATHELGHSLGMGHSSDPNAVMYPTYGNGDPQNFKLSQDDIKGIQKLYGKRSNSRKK
# Experiment Notes: other fluorescence titration; intrinsic fluorescence of PDMMP-7 (10 μM; excitation 280 nm, emission 300-450 nm, read at 347 nm), peptide titrated up to a molar ratio of 1:80, PBS pH 7.4, 298 K (25 °C)
pKd: −log10 of the molar value.
Measured pKd by item
Parameter Measured: pKd

[[record]]
binder = "SGVYPIDDFDYESASGSGAD [S2-FE, SDC2-mimetic peptide]"
parameter_measured = "pKd"
recorded_value = 3.34

[[record]]
binder = "SGVYPIDDDDYASASGSGAD [S2-P, synthetic peptide corresponding to human SDC2 extracellular domain residues 41-60]"
parameter_measured = "pKd"
recorded_value = 2.91

[[record]]
binder = "SGVYPIDDDDYDSASGSGAD [S2-D, SDC2-mimetic peptide with an Ala-to-Asp substitution at the C-terminal side of Tyr 51]"
parameter_measured = "pKd"
recorded_value = 3.26

[[record]]
binder = "SGVYPIFDLDYDSASGSGAD [S2-FLD, SDC2-mimetic peptide]"
parameter_measured = "pKd"
recorded_value = 4.19

